Recorded pKd by entry
Biological target: T1, human CD19 antigen (human, UniProt P15391 20-291, limits assumed)
T1 sequence (looked up): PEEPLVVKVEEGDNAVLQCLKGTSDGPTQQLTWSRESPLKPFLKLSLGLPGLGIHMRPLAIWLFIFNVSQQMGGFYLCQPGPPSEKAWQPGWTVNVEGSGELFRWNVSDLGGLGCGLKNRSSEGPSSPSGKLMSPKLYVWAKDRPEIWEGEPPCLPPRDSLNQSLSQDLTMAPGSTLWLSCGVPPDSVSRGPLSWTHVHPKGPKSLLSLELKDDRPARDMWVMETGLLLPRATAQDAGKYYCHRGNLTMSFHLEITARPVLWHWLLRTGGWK
Assay: SPR (Biacore), antibody captured via Fc
Note: pKd values are expressed as the negative base-10 logarithm of concentration in M.

• humanized CD19 antibody VH4 + VL2 (antibody, V domains shown, also called Antibody No. 11) VH: QVQLQESGPGLVKPSQTLSLTCTVSGVSLPDYGVSWIRQPPGKGLEWLGVIWGSETTYYNSALKSRLTISKDTSKNQVSLKLSSVTAADTAVYYCAKHYYYGGSYAMDYWGQGTTVTVSS VL: DIQMTQSPSSLSASVGDRVTITCRASQDISKYLNWYQQKPGKAPKLLIYHTSRLHSGVPSRFSGSGSGTDYTFTISSLQPEDIATYYCQQGNTLPYTFGGGTKLEIK = 7.05

Would you kindly look at the next entry?
Exercise: Query: pKd; subject: humanized CD19 antibody VH2 + VL1 (antibody, V domains shown, also called Antibody No. 4) VH: QVQLQESGPGLVKPSQTLSLTCTVSGVSLPDYGVSWIRQPPGKGLEWIGVIWGSETTYYNSALKSRVTISKDTSKNQVSLKLSSVTAADTAVYYCAKHYYYGGSYAMDYWGQGTTVTVSS VL: DIQMTQSPSSLSASVGDRVTITCRASQDISKYLNWYQQKPGKAPKLLIYHTSRLHSGVPSRFSGSGSGTDFTFTISSLQPEDIATYYCQQGNTLPYTFGGGTKLEIK
Key: 7.16

Source: patent US20230235052A1
